Attribution: PubChem BioAssay (NCI)

The following compounds are listed with their measured TGI values.
- Test system: UACC-62 melanoma
- Method Notes: NCI tumour cell line growth inhibition, 48 h

- Compound: "NC(=O)c1c(NC(=O)c2ccc(C(F)(F)F)cc2Cl)sc2c1CCC(=O)C2"
  Assayed Target: "UACC-62 melanoma"
  TGI: "1.21 µM"
- Compound: "C(#Cc1ccccc1C#Cc1cnccn1)c1cnccn1"
  Assayed Target: "UACC-62 melanoma"
  TGI: "51.4 µM"
- Compound: "COC(=O)/C=C1/OC(c2ccccc2)=C(Br)C1=O"
  Assayed Target: "UACC-62 melanoma"
  TGI: "> 100 µM"
- Compound: "CC1(C)CCOC(Sc2ccccc2)C1 (stereo unspecified)"
  Assayed Target: "UACC-62 melanoma"
  TGI: "> 100 µM"
- Compound: "CCCCCCCCCCCC(=O)OCC(O)CO (stereo unspecified)"
  Assayed Target: "UACC-62 melanoma"
  TGI: "> 100 µM"
- Compound: "CCOC(=O)c1ccc(N[C@@H]2c3cc4c(cc3C(c3cc(OC)c(O)c(OC)c3)[C@H]3C(=O)OCC32)OCO4)cc1 (stereo partly specified)"
  Assayed Target: "UACC-62 melanoma"
  TGI: "4.08 µM"
- Compound: "Cc1ccc2c(n1)C(=O)c1cc(C)c(C)cc1C2=O"
  Assayed Target: "UACC-62 melanoma"
  TGI: "> 100 µM"
- Compound: "C=Cc1c(-c2ccccc2)cnc2[nH]c3ccccc3c12"
  Assayed Target: "UACC-62 melanoma"
  TGI: "> 50 µM"
- Compound: "COc1ccc(C2=NC(CO)[C@H](c3ccccc3)O2)cc1OC (stereo partly specified)"
  Assayed Target: "UACC-62 melanoma"
  TGI: "> 100 µM"
- Compound: "COc1ccc(/C=N/n2c(Cc3ccccc3)n[nH]c2=O)c(OC)c1"
  Assayed Target: "UACC-62 melanoma"
  TGI: "> 100 µM"
- Compound: "O=C(NCCc1nccs1)c1cnc2c(S)cccc2c1"
  Assayed Target: "UACC-62 melanoma"
  TGI: "24.1 µM"

----------
Recorded TGI by entry
- Test system: COLO 205 colon
- Method Notes: NCI tumour cell line growth inhibition, 48 h
Where a SMILES comes first, the peptide text is derived from it. [ ]: non-standard residue; d: D form. The star is where a group is joined. Phe(4-NO2) = N[CH](Cc1ccc([N+](=O)[O-])cc1)C(=O)O; Cbz = O=C(OCc1ccccc1)*
Measured Quantity: TGI

- Compound: "O=C1CC[C@@H]2[C@H]3CCC(=O)c4c3c(c3cccc(O)c3c4O)O[C@@]23C(=O)c2cccc(O)c2C(O)=C13"
  Measured Quantity: "TGI"
  Reported: "> 100 µM"
- Compound: "CCOC(=O)CCC(NC(=O)OCc1ccccc1)C(=O)NC(CCC(=O)OCC)C(=O)NC(CCC(=O)OCC)C(=O)NC(CCC(=O)OCC)C(=O)NC(CCC(=O)OCC)C(=O)NC(Cc1ccc([N+](=O)[O-])cc1)C(=O)NC(CCC(=O)OCC)C(=O)NC(CCC(=O)OCC)C(=O)NC(CCC(=O)OCC)C(=O)NC(CCC(=O)OCC)C(=O)NC(CCC(=O)OCC)C(=O)OCC (stereo not given) (Cbz-E(OEt)E(OEt)E(OEt)E(OEt)E(OEt)[Phe(4-NO2)]E(OEt)E(OEt)E(OEt)E(OEt)E(OEt)-OEt; configuration not given here)"
  Measured Quantity: "TGI"
  Reported: "> 50 µM"
- Compound: "CC1=C(C(=O)Nc2cc(F)c(F)cc2F)C(c2ccc(N(C)C)cc2)C(C(=O)Nc2cc(F)c(F)cc2F)=C(C)N1"
  Measured Quantity: "TGI"
  Reported: "> 100 µM"
- Compound: "CC(=O)/C=C1/C(=O)C(CC(C)C)=C1CC(C)C"
  Measured Quantity: "TGI"
  Reported: "> 100 µM"
- Compound: "C=Cc1c(-c2ccccc2)cnc2[nH]c3ccccc3c12"
  Measured Quantity: "TGI"
  Reported: "> 50 µM"
